- target: SARS-CoV-2 Wuhan-Hu-1 RBD (SARS-CoV-2 Wuhan-Hu-1, UniProt P0DTC2)
- procedure_text: BLI
- reported_conditions: both partners purified
quantity_name: Kd (nM)
Unit nM implied. Number only.

get_value(item= V002 (antibody, V domains shown, IgG; donor BRA13; source: recombinant monoclonal IgG, produced and purified as previously described) VH: EVQLVESGGGLVQPGRSLRLSCAASGFTFDEYAMHWVRQAPGKGLEWVSGSSWNSGTIGYADSVKGRFTISRDNAKNSLYLQMNSLRAEDTALYYCAKSQGDYGGNSGAGYFQHWGQGTLVTVSS VL: SYELTQPPSVSVAPGKTARITCGGNNIGSKSVHWYQQKPGQAPMLVVYDDSDRPSGIPERFSGSNSGNTATLTISRVEAGDEADYYCQVWDSSSEVYVFGTGTKVTVL , readout=Kd) returns 1170
